B1: TPR t1 (parent)
chain: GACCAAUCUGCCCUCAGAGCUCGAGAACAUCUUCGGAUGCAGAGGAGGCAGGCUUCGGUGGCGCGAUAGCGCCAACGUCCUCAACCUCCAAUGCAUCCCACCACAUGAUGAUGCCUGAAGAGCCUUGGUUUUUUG

variants of: B1; assay: polymerase ribozyme fitness, log enrichment relative to wild type (log ratio); higher = more active; in vitro selection for triplet polymerase activity
QUANTITY MEASURED: polymerase ribozyme fitness (log ratio)

[
  {
    "MUTATION ID": "C13U A27U C79A",
    "QUANTITY MEASURED": "polymerase ribozyme fitness (log ratio)",
    "EXPERIMENTAL VALUE": -3.24
  },
  {
    "MUTATION ID": "U59A G63C C82A G127A",
    "QUANTITY MEASURED": "polymerase ribozyme fitness (log ratio)",
    "EXPERIMENTAL VALUE": -2.72
  },
  {
    "MUTATION ID": "G25U A46G",
    "QUANTITY MEASURED": "polymerase ribozyme fitness (log ratio)",
    "EXPERIMENTAL VALUE": -6.02
  },
  {
    "MUTATION ID": "A6U C88U",
    "QUANTITY MEASURED": "polymerase ribozyme fitness (log ratio)",
    "EXPERIMENTAL VALUE": -1.02
  }
]

Input: For the variant A37U A41C U55C U87G C88U , give its reported polymerase ribozyme fitness (log ratio).
Output: -2.92

Input: For the variant C73G A121C , give its reported polymerase ribozyme fitness (log ratio).
Output: 1.42

Input: For the variant U14A G36A C56U , give its reported polymerase ribozyme fitness (log ratio).
Output: -3.35

Input: For the variant U54G G60A U92A G107C G117A , give its reported polymerase ribozyme fitness (log ratio).
Output: -6.96

Input: For the variant C62A A91C C98G A111C C115U A118U G122A U126G , give its reported polymerase ribozyme fitness (log ratio).
Output: -7.7

Input: For the variant G71U G110U , give its reported polymerase ribozyme fitness (log ratio).
Output: -1.24

Input: For the variant C28U G52A C70U , give its reported polymerase ribozyme fitness (log ratio).
Output: -3.7

Input: For the variant C104A G135U , give its reported polymerase ribozyme fitness (log ratio).
Output: -2.01

Input: For the variant U21G U54C G58A U81A A91G A95U G113A U125G , give its reported polymerase ribozyme fitness (log ratio).
Output: -5.59

Input: For the variant C53U G58U , give its reported polymerase ribozyme fitness (log ratio).
Output: -0.0375
